Data provenance is ChEMBL document CHEMBL4699523.

Conditions: human, in vivo, iv
Description: Hepatic clearance in human administered through iv dosing
Readout Type: CLH (mL/min/kg)

Some solved cases for reference:
compound=CCO[C@@H](Cc1ccc(OCCc2ccc(OS(C)(=O)=O)cc2)cc1)C(=O)O output_unit=mL/min/kg measured_result=0.03
compound=CC(C)(O)c1ccccc1CC[C@@H](SCC1(CC(=O)O)CC1)c1cccc(/C=C/c2ccc3ccc(Cl)cc3n2)c1 output_unit=mL/min/kg measured_result=0.57
compound=CC(C)c1nc(N(C)S(C)(=O)=O)nc(-c2ccc(F)cc2)c1/C=C/[C@@H](O)C[C@@H](O)CC(=O)O output_unit=mL/min/kg measured_result=6.8
compound=COc1ccccc1Oc1c(NS(=O)(=O)c2ccc(C(C)(C)C)cc2)nc(-c2ncccn2)nc1OCCO output_unit=mL/min/kg measured_result=2.2
compound="CCCCCN(CCCOC)C(=O)[C@@H](CCC(=O)O)NC(=O)c1ccc(Cl)c(Cl)c1 [DEXLOXIGLUMIDE]" output_unit=mL/min/kg measured_result=3.3

[1] Nc1[nH]ncc1-c1cc(Cl)ccc1Oc1cc(F)c(S(=O)(=O)Nc2cscn2)cc1Cl
[2] COCc1c(C(C)C)nc(C(C)C)c(/C=C/[C@@H](O)C[C@@H](O)CC(=O)O)c1-c1ccc(F)cc1
# input Hi, I'm comparing two records. Which one has the lower CLH, 1 or 2 ? Identify your pick by its label.
# output 1
(1: 0.59 mL/min/kg, 2: 2.7 mL/min/kg)

[I] CC(C)(C)NC(=O)[C@H]1CC[C@H]2[C@@H]3CC=C4C=C(C(=O)O)CC[C@]4(C)[C@H]3CC[C@]12C [EPRISTERIDE]
[II] CCOc1cc(CC(=O)N[C@@H](CC(C)C)c2ccccc2N2CCCCC2)ccc1C(=O)O [REPAGLINIDE]
# input Which is greater in CLH, the first item I or the second item II ? Identify your pick by its label.
# output II

[a] CC(C)(C)OC(=O)N[C@H]1CCCCC/C=C\[C@@H]2C[C@@]2(C(=O)NS(=O)(=O)C2CC2)NC(=O)[C@@H]2C[C@@H](OC(=O)N3Cc4cccc(F)c4C3)CN2C1=O
[b] Cc1nn(-c2cnc(OCC(C)C)c(Cl)c2)c2ccc(C(=O)NS(C)(=O)=O)cc12
# input Which is greater in CLH, the first item a or the second item b ? Identify your pick by its label.
# output a
(a: 10.8 mL/min/kg, b: 5.7 mL/min/kg)

* * *

Assay: in vitro
Settings: human, plasma
Description: Fraction unbound in human plasma
Readout Type: fraction unbound

compound="CCOc1cc(CC(=O)N[C@@H](CC(C)C)c2ccccc2N2CCCCC2)ccc1C(=O)O [REPAGLINIDE]" measured_result=0.0124

[a] COc1ccc2c(c1)C(=O)N(CCc1ccc(S(=O)(=O)NC(=O)NC3CCCCC3)cc1)C(=O)C2(C)C
[b] CC(C)(C)OC(=O)N[C@H]1CCCCC/C=C\[C@@H]2C[C@@]2(C(=O)NS(=O)(=O)C2CC2)NC(=O)[C@@H]2C[C@@H](OC(=O)N3Cc4cccc(F)c4C3)CN2C1=O
[c] COc1ccccc1[C@H](Cn1c(=O)n(C(C)(C)C(=O)O)c(=O)c2c(C)c(-c3ncco3)sc21)OC1CCOCC1
# input # desc sort on fraction unbound across 3 compounds Note for the reader: the ranking is given by listing the labels in the order requested.
# output b, c, a

* * *

Experiment: in vitro
Conditions: human, plasma
Readout Type: fraction unbound

Some solved cases for reference:
compound_structure_string=COc1ccccc1Oc1c(NS(=O)(=O)c2ccc(C(C)(C)C)cc2)nc(-c2ncccn2)nc1OCCO measured_result=0.0285
compound_structure_string=CCCCc1nc(C)c(CC(=S)N(C)C)c(=O)n1Cc1ccc(-c2ccccc2-c2nnn[nH]2)cc1 measured_result=0.0288

[1] O=C(O)C[C@H](O)C[C@H](O)/C=C/c1c(C2CC2)nc2ccccc2c1-c1ccc(F)cc1
[2] CC[C@H](C)C(=O)O[C@H]1C[C@H](O)C=C2C=C[C@H](C)[C@H](CC[C@@H](O)C[C@@H](O)CC(=O)O)[C@H]21
# input Hi, I'm comparing two records. Which one has the lower fraction unbound, 1 or 2 ? Identify your pick by its label.
# output 1
(1: 0.008, 2: 0.634)

* * *

Test: in vivo
Details: Wistar Hannover, rat, blood and plasma, iv
Description: Ratio of drug level in Wistar Hannover rat blood to plasma administered through iv dosing by LC-MS/MS analysis
Readout Type: blood plasma ratio

molecule=COc1ccccc1Oc1c(NS(=O)(=O)c2ccc(C(C)(C)C)cc2)nc(-c2ncccn2)nc1OCCO measured_result=0.69
molecule=O=C(O)C[C@H](O)C[C@H](O)/C=C/c1c(C2CC2)nc2ccccc2c1-c1ccc(F)cc1 measured_result=0.65
molecule=CC(C)c1nc(N(C)S(C)(=O)=O)nc(-c2ccc(F)cc2)c1/C=C/[C@@H](O)C[C@@H](O)CC(=O)O measured_result=0.588
molecule=CCCc1nc2c(C)cc(-c3nc4ccccc4n3C)cc2n1Cc1ccc(-c2ccccc2C(=O)O)cc1 measured_result=0.65
molecule="O=C(c1ccccc1)c1ccc2n1CCC2C(=O)O (configuration not stated)" measured_result=0.55
molecule=Cc1nn(-c2cnc(OCC(C)C)c(Cl)c2)c2ccc(C(=O)NS(C)(=O)=O)cc12 measured_result=0.55
molecule=CC[C@H](C)C(=O)O[C@H]1C[C@H](O)C=C2C=C[C@H](C)[C@H](CC[C@@H](O)C[C@@H](O)CC(=O)O)[C@H]21 measured_result=0.595

* * *

Experiment: in vitro
Conditions: human, plasma
Readout Type: fraction unbound

Some solved cases for reference:
molecule=CCC[C@H](c1ccc(C(=O)NCCC(=O)O)cc1)[C@H](c1ccc(Cl)cc1)c1c[nH]c2c(F)cc(C)cc12 readout_type="fraction unbound" measured_result=0.00025
molecule="CC(C)(C)NC(=O)[C@H]1CC[C@H]2[C@@H]3CC=C4C=C(C(=O)O)CC[C@]4(C)[C@H]3CC[C@]12C [EPRISTERIDE]" readout_type="fraction unbound" measured_result=0.0138
molecule="CC(C)n1c(/C=C/C(O)CC(O)CC(=O)O)c(-c2ccc(F)cc2)c2ccccc21 (stereo not given)" readout_type="fraction unbound" measured_result=0.00922

[1] COCc1c(C(C)C)nc(C(C)C)c(/C=C/[C@@H](O)C[C@@H](O)CC(=O)O)c1-c1ccc(F)cc1
[2] Cc1cc(O[C@H](CCC(F)(F)F)c2ccc(C(=O)NCCC(=O)O)cc2)cc(C)c1-c1ccc(C(C)(C)C)cc1
# input Hi, I'm comparing two records. Which one has the lower fraction unbound, 1 or 2 ? Identify your pick by its label.
# output 2
(2: 3.6e-05, 1: 0.0176)

* * *

Assay: physchem
Details: buffer, pH 7.4
Readout Type: logD

Some solved cases for reference:
compound=Cc1nn(-c2cnc(OCC(C)C)c(Cl)c2)c2ccc(C(=O)NS(C)(=O)=O)cc12 measured_result=2
compound="CCCCCN(CCCOC)C(=O)[C@@H](CCC(=O)O)NC(=O)c1ccc(Cl)c(Cl)c1 [DEXLOXIGLUMIDE]" measured_result=1.5
compound=CCCc1nc2c(C)cc(-c3nc4ccccc4n3C)cc2n1Cc1ccc(-c2ccccc2C(=O)O)cc1 measured_result=2.4
compound=O=C(O)c1ccc(NC(=O)[C@H](CC2CCCC2)n2cnc(C(F)(F)F)c2)nc1 measured_result=0.7
compound=O=C(O)C[C@H](O)C[C@H](O)/C=C/c1c(C2CC2)nc2ccccc2c1-c1ccc(F)cc1 measured_result=1.2
compound="CC(C)Cc1ccc(C(C)C(=O)O)cc1 (stereo unspecified)" measured_result=1.1
compound=Cc1ccc(NC(=O)C2(c3ccc4c(c3)OC(F)(F)O4)CC2)nc1-c1cccc(C(=O)O)c1 measured_result=2.6
compound=CCCCC1=NC2(CCCC2)C(=O)N1Cc1ccc(-c2ccccc2-c2nnn[nH]2)cc1 measured_result=1.3
compound=COc1ccccc1[C@H](Cn1c(=O)n(C(C)(C)C(=O)O)c(=O)c2c(C)c(-c3ncco3)sc21)OC1CCOCC1 measured_result=1.1
compound="CC(C)(C)NC(=O)[C@H]1CC[C@H]2[C@@H]3CC=C4C=C(C(=O)O)CC[C@]4(C)[C@H]3CC[C@]12C [EPRISTERIDE]" measured_result=3.4

[1] CCN1CC(n2nccc2-c2cc(Cl)ccc2Oc2ccc(S(=O)(=O)Nc3cscn3)cc2C#N)C1
[2] Cn1cc(C(=O)O)c2ccc(N3CCC(OCc4c(-c5c(Cl)cccc5Cl)noc4C4CC4)CC3)cc21
# input Which is greater in logD, the first item 1 or the second item 2 ? Identify your pick by its label.
# output 2

[1] COc1ccccc1Oc1c(NS(=O)(=O)c2ccc(C(C)(C)C)cc2)nc(-c2ncccn2)nc1OCCO
[2] Nc1[nH]ncc1-c1cc(Cl)ccc1Oc1cc(F)c(S(=O)(=O)Nc2cscn2)cc1Cl
# input Hi, I'm comparing two records. Which one has the lower logD, 1 or 2 ? Identify your pick by its label.
# output 1
(1: 1.2, 2: 2.3)

* * *

Assay: in vitro
Details: rat, plasma
Description: Fraction unbound in rat plasma
Readout Type: fraction unbound

Some solved cases for reference:
molecule=O=C(O)Cc1ccccc1Nc1c(Cl)cccc1Cl measured_result=0.00598
molecule=CCCc1nc2c(C)cc(-c3nc4ccccc4n3C)cc2n1Cc1ccc(-c2ccccc2C(=O)O)cc1 measured_result=0.006
molecule=COCc1c(C(C)C)nc(C(C)C)c(/C=C/[C@@H](O)C[C@@H](O)CC(=O)O)c1-c1ccc(F)cc1 measured_result=0.0179
molecule=Nc1[nH]ncc1-c1cc(Cl)ccc1Oc1cc(F)c(S(=O)(=O)Nc2cscn2)cc1Cl measured_result=0.0133
molecule="O=C(c1ccccc1)c1ccc2n1CCC2C(=O)O (stereo not drawn)" measured_result=0.0216
molecule=CC[C@H](C)C(=O)O[C@H]1C[C@H](O)C=C2C=C[C@H](C)[C@H](CC[C@@H](O)C[C@@H](O)CC(=O)O)[C@H]21 measured_result=0.537
molecule=COc1ccccc1Oc1c(NS(=O)(=O)c2ccc(C(C)(C)C)cc2)nc(-c2ncccn2)nc1OCCO measured_result=0.0121
molecule="COc1ccc(Cl)cc1C(=O)NCCc1ccc(S(=O)(=O)NC(=O)NC2CCCCC2)cc1 [GLYBURIDE]" measured_result=0.0013
molecule="CC(C)n1c(/C=C/C(O)CC(O)CC(=O)O)c(-c2ccc(F)cc2)c2ccccc21 (stereo not drawn)" measured_result=0.009
molecule=O=C(O)C[C@H](O)C[C@H](O)/C=C/c1c(C2CC2)nc2ccccc2c1-c1ccc(F)cc1 measured_result=0.008

[A] CC(C)c1nc(N(C)S(C)(=O)=O)nc(-c2ccc(F)cc2)c1/C=C/[C@@H](O)C[C@@H](O)CC(=O)O
[B] CCCCC(=O)N(Cc1ccc(-c2ccccc2-c2nnn[nH]2)cc1)[C@H](C(=O)O)C(C)C
# input Hi, I'm comparing two records. Which one has the lower fraction unbound, A or B ? Identify your pick by its label.
# output B
